Consider the following IC50 data for UniProt P34947, collected from several reports.
Sequence (P34947 whole entry): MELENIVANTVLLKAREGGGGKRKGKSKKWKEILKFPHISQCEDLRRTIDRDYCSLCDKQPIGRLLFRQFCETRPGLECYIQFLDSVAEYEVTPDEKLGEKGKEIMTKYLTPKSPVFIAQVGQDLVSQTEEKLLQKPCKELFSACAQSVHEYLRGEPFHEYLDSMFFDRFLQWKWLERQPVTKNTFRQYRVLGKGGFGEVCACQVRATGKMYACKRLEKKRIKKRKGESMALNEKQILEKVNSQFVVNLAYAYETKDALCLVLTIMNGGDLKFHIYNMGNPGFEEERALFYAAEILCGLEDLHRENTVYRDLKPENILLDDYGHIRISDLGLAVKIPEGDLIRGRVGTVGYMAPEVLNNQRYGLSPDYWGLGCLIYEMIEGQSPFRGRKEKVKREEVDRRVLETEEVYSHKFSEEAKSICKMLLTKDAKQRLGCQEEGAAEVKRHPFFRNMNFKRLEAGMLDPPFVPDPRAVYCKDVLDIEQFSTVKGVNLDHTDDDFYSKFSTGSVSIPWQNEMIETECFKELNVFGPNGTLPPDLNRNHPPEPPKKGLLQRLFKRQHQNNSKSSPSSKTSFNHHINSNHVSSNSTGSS
reported_endpoint: IC50

| compound | reported_value |
| --- | --- |
| COc1cccc(Cn2ncc3ccc(-c4cn[nH]c4)cc3c2=O)c1 | > 10 µM |
| CC1=C(C(=O)Nc2ccc3[nH]ncc3c2)C(c2ccc(F)c(C(=O)NCc3c(Cl)cccc3Cl)c2)NC(=O)N1 (stereo not drawn) | > 100 µM |
| CC1=C(C(=O)Nc2ccc3[nH]ncc3c2)C(c2ccc(F)c(CC(=O)NCc3cc(C)ccc3C)c2)NC(=O)N1 (stereo not drawn) | > 100 µM |
